Values compiled from patent US12281162.

What LogEC50 was measured for each of the following?
Molecular target: T1, human G-protein-coupled receptor family C group 5 member D (GPRC5D) (human, UniProt Q9NZD1 1-345)
T1 construct: whole, on cells; also called human GPRC5D protein
T1 sequence (Q9NZD1 whole entry): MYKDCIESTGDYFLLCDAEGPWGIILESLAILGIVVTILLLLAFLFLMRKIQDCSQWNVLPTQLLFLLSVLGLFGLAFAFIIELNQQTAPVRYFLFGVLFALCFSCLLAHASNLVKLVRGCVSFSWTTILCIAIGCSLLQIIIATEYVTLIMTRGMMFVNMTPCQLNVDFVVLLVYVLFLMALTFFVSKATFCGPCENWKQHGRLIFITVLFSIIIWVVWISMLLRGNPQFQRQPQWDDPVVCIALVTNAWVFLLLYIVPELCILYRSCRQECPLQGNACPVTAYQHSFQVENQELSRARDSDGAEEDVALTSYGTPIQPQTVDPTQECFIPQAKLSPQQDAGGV
Assay: FACS, CHO-K1/GPRC5D
Answers are plain numbers.

For each entry beneath this line, provide reported LogEC50.
1. 34-H2L3 (antibody, V domains shown, humanized 34D3H1, VH v2 x VL v3) VH: EVQLVESGGGLVKPGGSLRLSCAASGFTFSSYGMSWVRQTPGKGLEWVATISSGGSYTYYPDSVKGRFTISRDNAKNSLYLQMSSLRAEDTAVYYCARQGGDAMDYWGQGTLVTVSS VL: DIQLTQSPSSLSASVGDRVTITCRASQSINNNLHWYQQKPGKSPKLLIYYASQSISGIPSRFSGSGSGTDFTLTISSVQPEDFATYFCQQSNSRLTFGGGTKLEIK
2. 34-XI (antibody, V domains shown, also called 34D3H1 (chimeric)) VH: EVHLVESGGDLVKPGGSLKLSCAASGFTFSSYGMSWVRQTPDKRLEWVATISSGGSYTYYPDSVKGRFTISRDNAKNTLNLQMSSLKSEDTAMYYCARQGGDAMDYWGQGTSVTVSS VL: DIVLTQSPATLSVTPGDSVSLSCRASQSINNNLHWYQQKSHESPRLLIKYASQSISGIPSRFSGSGSGTDFTLSINSVETEDFGMYFCQQSNSRLTFGAGTKLELK
3. 34-H3L4 (antibody, V domains shown, humanized 34D3H1, VH v3 x VL v4) VH: EVHLVESGGGLVKPGGSLRLSCAASGFTFSSYGMSWVRQTPGKRLEWVATISSGGSYTYYPDSVKGRFTISRDNAKNSLNLQMSSLRAEDTAVYYCARQGGDAMDYWGQGTLVTVSS VL: DIVLTQSPSSLSVSVGDRVTLTCRASQSINNNLHWYQQKPGKSPKLLIYYASQSISGIPSRFSGSGSGTDFTLTISSVQPEDFATYFCQQSNSRLTFGGGTKLEIK

Response:
1: 0.583; 2: 0.495; 3: 0.598
